Tested on: Mycolicibacterium fortuitum
Assay text: Antibacterial activity against Mycobacterium fortuitum
Assay type: functional, organism-based
Activity calls are given as the source filed them. The calls are words filed in the database; no cut-off is given here.

Compound smiles	Activity
CC(C)(C)c1cc(/C=N/N=C(\N)c2ccncc2)c(O)c(C(C)(C)C)c1	inactive
N/C(=N\N=C\c1cc(Br)cc([N+](=O)[O-])c1O)c1ccncc1	inactive
N/C(=N\N=C\c1ccc(O)c(O)c1O)c1ccncc1	inactive
N/C(=N\N=C\c1ccc(O)c(O)c1)c1ccncc1	inactive
CC(=O)Oc1c(/C=N/N=C(\N)c2ccncc2)cc(C(C)(C)C)cc1C(C)(C)C	inactive
CC(C)(C)c1cc(/C=N/N=C(\N)c2cccnc2)c(O)c(C(C)(C)C)c1	inactive
N/C(=N\N=C\c1cc(O)c(O)cc1O)c1ccncc1	inactive
COc1cc([N+](=O)[O-])cc(/C=N/N=C(\N)c2ccncc2)c1O	inactive
CC(C)(C)c1cc(/C=N/N=C(\N)c2cnccn2)c(O)c(C(C)(C)C)c1	inactive
COc1ccc(/C=N/N=C(\N)c2ccncc2)c(O)c1	inactive
CC(C)(C)c1cc(/C=N/N=C(\N)c2ccc3ccccc3n2)c(O)c(C(C)(C)C)c1	inactive

----------
Known Activity of a selection of compounds
Tested on: PBMC
Assay text: Toxicity towards human mononuclear leucocytes at 1 mM
Assay type: cell-based
Experimental conditions: 1000 µM

Compound smiles	Target	Activity
NNC(=O)c1ccncc1	PBMC	12.4%
N/N=C(/N)c1ccncc1	PBMC	13.8%
N/C(=N\N=C\c1ccccc1O)c1ccncc1	PBMC	11.7%
CC(C)(C)c1cc(C=O)c(O)c(C(C)(C)C)c1	PBMC	32.7%
